Target: Death-associated protein kinase 1 (Homo sapiens) (UniProt P53355);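 note: reported figure is the mean inhibition of DAPK1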
Sequence (P53355 whole entry, looked up): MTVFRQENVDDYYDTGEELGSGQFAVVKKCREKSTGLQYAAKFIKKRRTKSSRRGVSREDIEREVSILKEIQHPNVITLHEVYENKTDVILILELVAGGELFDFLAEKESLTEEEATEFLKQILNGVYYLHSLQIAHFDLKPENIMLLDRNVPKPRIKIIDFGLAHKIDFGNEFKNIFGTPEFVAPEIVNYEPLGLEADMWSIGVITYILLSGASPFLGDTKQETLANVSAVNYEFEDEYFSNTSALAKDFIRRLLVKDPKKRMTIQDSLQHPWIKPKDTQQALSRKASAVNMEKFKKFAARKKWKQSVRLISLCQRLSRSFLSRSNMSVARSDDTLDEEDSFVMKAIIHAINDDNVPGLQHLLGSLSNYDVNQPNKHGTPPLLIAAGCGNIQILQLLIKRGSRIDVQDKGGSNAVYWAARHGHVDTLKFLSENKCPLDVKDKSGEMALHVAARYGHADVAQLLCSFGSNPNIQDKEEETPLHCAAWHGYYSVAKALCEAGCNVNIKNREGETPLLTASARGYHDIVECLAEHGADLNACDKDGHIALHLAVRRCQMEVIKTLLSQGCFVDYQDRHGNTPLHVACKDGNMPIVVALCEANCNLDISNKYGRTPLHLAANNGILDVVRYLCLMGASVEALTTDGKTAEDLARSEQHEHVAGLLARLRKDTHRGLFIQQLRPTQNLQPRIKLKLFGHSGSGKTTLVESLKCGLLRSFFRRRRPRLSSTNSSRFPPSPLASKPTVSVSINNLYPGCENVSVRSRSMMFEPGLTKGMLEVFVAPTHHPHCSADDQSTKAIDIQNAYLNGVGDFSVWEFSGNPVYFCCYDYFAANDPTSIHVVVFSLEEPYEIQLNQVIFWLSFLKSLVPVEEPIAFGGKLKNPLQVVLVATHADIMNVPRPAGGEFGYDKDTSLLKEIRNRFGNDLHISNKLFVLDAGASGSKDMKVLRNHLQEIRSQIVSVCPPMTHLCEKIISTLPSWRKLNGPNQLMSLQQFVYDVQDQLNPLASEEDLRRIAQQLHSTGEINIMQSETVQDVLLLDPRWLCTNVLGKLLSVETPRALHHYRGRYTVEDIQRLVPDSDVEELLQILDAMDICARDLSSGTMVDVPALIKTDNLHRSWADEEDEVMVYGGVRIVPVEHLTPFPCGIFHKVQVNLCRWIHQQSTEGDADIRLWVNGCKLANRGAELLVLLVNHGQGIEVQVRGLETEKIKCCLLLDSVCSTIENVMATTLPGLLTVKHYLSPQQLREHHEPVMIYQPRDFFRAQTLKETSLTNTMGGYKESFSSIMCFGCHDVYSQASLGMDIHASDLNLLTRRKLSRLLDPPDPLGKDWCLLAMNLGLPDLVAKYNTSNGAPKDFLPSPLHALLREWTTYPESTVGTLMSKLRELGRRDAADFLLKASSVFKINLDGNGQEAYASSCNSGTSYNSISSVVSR
Conditions: at 0.1 µM
Here, each record is paired with measured inhibition data.
Give just the numeric value; % need not be written.

# smiles.structure, experimental.target, inhibition / %
data = [
    ("COc1cc(N2CCN(C(C)C)CC2)ccc1Nc1nc(Nc2cccc(F)c2C(=O)O)c2cc[nH]c2n1", "Death-associated protein kinase 1 (Homo sapiens) (UniProt P53355)", 3.88),
    ("COc1ccc2ncn(-c3cc(O[C@H](C)c4ccccc4C(F)(F)F)c(C(N)=O)s3)c2c1", "Death-associated protein kinase 1 (Homo sapiens) (UniProt P53355)", -0.67),
    ("Fc1ccc(Nc2nccc(-c3c(-c4ccc(C(F)(F)F)cc4)nn4ncccc34)n2)cc1F", "Death-associated protein kinase 1 (Homo sapiens) (UniProt P53355)", 3.45),
    ("CS(=O)(=O)CCNCc1ccc(-c2ccc3ncnc(Nc4ccc(OCc5ccccc5)cc4)c3c2)o1", "Death-associated protein kinase 1 (Homo sapiens) (UniProt P53355)", 3.08),
    ("CS(=O)(=O)CCNCc1ccc(-c2ccc3ncnc(Nc4ccc(OCc5cccc(C(F)(F)F)c5)cc4)c3c2)o1", "Death-associated protein kinase 1 (Homo sapiens) (UniProt P53355)", 6.71),
]

Query block: Any idea what its inhibition is? The compound is COc1ccccc1-c1cc(/C=C2\C(=O)Nc3ncc(Br)cc32)cc(Br)c1O
Result block: 0.98

* * *

Molecular target: Tyrosine-protein kinase Fes/Fps (Homo sapiens) (UniProt P07332);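 note: mean inhibition of FES from the GSK PKIS kinase inhibitor screening set, assayed by Nanosyn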
Sequence (P07332 whole entry): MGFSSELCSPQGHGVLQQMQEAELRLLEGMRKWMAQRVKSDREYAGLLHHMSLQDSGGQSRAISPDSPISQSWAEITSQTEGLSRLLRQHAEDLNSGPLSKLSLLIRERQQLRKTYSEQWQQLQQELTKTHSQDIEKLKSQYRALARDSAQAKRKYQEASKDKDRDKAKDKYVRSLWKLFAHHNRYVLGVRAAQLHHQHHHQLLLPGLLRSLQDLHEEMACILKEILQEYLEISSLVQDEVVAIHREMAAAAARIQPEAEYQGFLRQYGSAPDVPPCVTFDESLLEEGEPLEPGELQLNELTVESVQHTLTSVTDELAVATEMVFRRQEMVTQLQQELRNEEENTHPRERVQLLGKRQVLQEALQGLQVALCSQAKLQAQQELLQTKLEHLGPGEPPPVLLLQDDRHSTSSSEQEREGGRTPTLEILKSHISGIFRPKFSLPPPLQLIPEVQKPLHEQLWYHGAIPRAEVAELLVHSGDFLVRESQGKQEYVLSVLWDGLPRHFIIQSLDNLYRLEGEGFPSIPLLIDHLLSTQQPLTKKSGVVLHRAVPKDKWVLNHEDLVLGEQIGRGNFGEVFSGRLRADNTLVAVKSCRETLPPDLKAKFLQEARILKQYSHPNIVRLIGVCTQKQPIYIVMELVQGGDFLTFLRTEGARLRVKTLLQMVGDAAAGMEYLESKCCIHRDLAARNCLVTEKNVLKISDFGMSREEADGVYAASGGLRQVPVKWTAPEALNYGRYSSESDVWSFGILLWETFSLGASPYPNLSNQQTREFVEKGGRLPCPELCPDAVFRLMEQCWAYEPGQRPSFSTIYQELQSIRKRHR
Details: at 1 µM
observed.property: inhibition
Remember to follow the number with its unit.

Illustrative cases are given below, each with its answer.
# smiles.structure, result
records = [
    ("COc1ccc2ncn(-c3cc(O[C@H](C)c4ccccc4C(F)(F)F)c(C(N)=O)s3)c2c1", "0.25%"),
    ("NC(=O)c1ccc2c(-c3ccnc(NCCCO)n3)c(-c3ccc(F)cc3)nn2c1", "5.19%"),
    ("COc1cc(N2CCN(C(C)C)CC2)ccc1Nc1nc(Nc2cccc3ncccc23)c2cc[nH]c2n1", "10%"),
]

Query block: Any idea what its inhibition is? The molecule is COc1cccc(-n2ncc3c(N/N=C/c4ccc(C(=O)NCCN(C)C)cc4)ncnc32)c1
Result block: 3.63%

Query block: Let us now turn to OCCCNc1nccc(-c2c(-c3ccc(F)cc3)nn3cc(C(F)(F)F)ccc23)n1
Result block: 2.62%

Query block: Let us now turn to COC(=O)Nc1nc2ccc(Oc3ccc(NC(=O)Nc4cc(C(F)(F)F)ccc4F)cc3)cc2s1
Result block: 0.99%

Query block: Let us now turn to N#Cc1ccc2c(-c3ccnc(NC4CC4)n3)c(-c3ccc(F)cc3)nn2c1
Result block: 1.43%

* * *

Here, each record is paired with measured inhibition data.
Molecular target: Ribosomal protein S6 kinase alpha-4 (Homo sapiens) (UniProt O75676);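 note: values are mean inhibition of MSK2, from GSK PKIS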
Sequence (O75676 whole entry, looked up): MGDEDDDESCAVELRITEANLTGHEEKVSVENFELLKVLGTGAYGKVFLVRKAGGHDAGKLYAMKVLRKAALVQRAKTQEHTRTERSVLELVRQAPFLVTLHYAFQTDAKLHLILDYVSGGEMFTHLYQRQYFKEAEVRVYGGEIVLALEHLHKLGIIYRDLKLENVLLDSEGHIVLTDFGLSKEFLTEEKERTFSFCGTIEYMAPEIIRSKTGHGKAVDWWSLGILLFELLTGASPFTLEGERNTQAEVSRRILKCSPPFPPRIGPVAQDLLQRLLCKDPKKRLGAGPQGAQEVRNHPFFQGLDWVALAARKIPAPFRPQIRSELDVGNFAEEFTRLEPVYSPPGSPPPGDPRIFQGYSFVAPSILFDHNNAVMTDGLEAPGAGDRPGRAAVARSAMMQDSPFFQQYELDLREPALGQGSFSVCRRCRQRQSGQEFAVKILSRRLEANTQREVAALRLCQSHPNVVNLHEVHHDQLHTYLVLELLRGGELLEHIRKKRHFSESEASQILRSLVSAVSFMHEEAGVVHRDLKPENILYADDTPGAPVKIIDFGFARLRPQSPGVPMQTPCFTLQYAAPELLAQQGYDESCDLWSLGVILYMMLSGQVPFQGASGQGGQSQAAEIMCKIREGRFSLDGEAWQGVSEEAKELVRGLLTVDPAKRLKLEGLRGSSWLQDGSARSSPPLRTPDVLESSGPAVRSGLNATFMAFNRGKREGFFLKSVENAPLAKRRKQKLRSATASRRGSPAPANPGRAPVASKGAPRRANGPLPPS
Conditions: at 0.1 µM
Give just the numeric value; % need not be written.

Illustrative cases are given below, each with its answer.
# smiles.structure, inhibition, %
rows = [
    ("Cc1nnc(-c2cccc(-c3ccc(C(=O)NCC4CC4)cc3)c2)o1", 3.13),
    ("c1ccc(-c2n[nH]cc2-c2ccnc(-c3ccc(OCCn4ccnc4)cc3)c2)nc1", 0.76),
    ("COC(=O)Nc1nc2cc(Oc3ccc(NC(=O)Nc4ccccc4)cc3)ccc2[nH]1", 2.62),
    ("CS(=O)(=O)Nc1ccc(-c2cc(-c3ccccc3)cc(C(N)=O)c2N)cc1", -0.81),
    ("COc1c(C(N)=O)cc(-c2ccc(Cl)cc2)cc1-c1ccc(S(N)(=O)=O)cc1", 3.65),
    ("CS(=O)(=O)CCNCc1ccoc1-c1ccc2ncnc(Nc3ccc(OCc4ccccc4)cc3)c2c1", 0.88),
]

Query block: Any idea what its inhibition is? The molecule is CN(c1ccc(NC(=O)NCCN2CCOCC2)cc1)c1ccnc(Nc2ccc(CS(C)(=O)=O)cc2)n1
Result block: 2.62

* * *

Target: Serine/threonine-protein kinase TBK1 (Homo sapiens);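 note: values are the mean TBK1 inhibition, taken from the GSK PKIS screening data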
Conditions: at 0.1 µM
observed.property: inhibition (%)
Give just the numeric value; % need not be written.

Illustrative cases are given below, each with its answer.
# smiles.structure, result
measured = [
    ("CCS(=O)(=O)c1ccc(OC)c(Nc2ncc(-c3cccc(F)c3)o2)c1", 5.98),
    ("Cc1ccc(-c2cc3c(NC(=O)C4CC4)ncnc3o2)cc1", 3.64),
    ("c1cnn2ncc(-c3ccnc(NCCCN4CCOCC4)n3)c2c1", 0.82),
    ("CNC(=O)c1cncc(/C=C/c2ccccc2C)c1", 2.9),
]

Query block: Any idea what its inhibition is? The compound is COc1cc2c(cc1Nc1nc(Nc3cccc(F)c3C(N)=O)c3cc[nH]c3n1)N(C(=O)CN1CCN(C(C)C)CC1)CC2
Result block: 2.33

Query block: Let us now turn to COc1ccc(Nc2ncc(-c3ccccc3)o2)cc1OC
Result block: -0.12

* * *

Target: Mitogen-activated protein kinase kinase kinase kinase 2 (Homo sapiens) (UniProt Q12851);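 note: reported value is a mean of MAP4K2 inhibition at 1 µM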
Sequence (Q12851 whole entry): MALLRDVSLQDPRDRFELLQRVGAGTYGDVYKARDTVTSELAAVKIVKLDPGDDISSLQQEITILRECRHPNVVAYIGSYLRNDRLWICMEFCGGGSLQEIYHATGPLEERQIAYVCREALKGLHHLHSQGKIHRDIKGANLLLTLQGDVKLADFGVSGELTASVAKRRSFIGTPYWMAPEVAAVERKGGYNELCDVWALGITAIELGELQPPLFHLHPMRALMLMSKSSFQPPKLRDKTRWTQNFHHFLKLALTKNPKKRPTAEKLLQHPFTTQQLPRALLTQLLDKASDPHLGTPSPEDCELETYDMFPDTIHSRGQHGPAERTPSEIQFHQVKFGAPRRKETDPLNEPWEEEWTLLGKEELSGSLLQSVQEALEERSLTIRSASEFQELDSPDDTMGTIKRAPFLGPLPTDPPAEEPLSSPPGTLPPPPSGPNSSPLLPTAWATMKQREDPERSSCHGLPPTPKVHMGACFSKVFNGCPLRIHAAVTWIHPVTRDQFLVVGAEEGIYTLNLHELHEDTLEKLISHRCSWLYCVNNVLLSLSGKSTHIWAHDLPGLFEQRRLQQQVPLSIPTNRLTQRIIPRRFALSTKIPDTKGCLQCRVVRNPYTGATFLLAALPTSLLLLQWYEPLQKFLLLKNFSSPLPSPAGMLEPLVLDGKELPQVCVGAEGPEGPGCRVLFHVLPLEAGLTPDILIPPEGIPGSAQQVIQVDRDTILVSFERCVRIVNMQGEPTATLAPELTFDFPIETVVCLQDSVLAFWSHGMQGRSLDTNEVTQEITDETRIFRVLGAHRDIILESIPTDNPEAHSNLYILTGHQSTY
Conditions: at 1 µM
inhibition vs 2%: at or above is Fulfilled, below is Not fulfilled.

Below, 5 compounds whose answers are already recorded.
# smiles.structure, label.class
data = [
    ("Fc1cccc(COc2ccc(Nc3ncncc3C#Cc3ccccc3)cc2Cl)c1", "Not fulfilled"),
    ("COC(=O)Nc1nc2ccc(Oc3ccc(NC(=O)Nc4cc(C(F)(F)F)ccc4F)cc3)cc2s1", "Fulfilled"),
    ("COc1cccc(-n2ncc3c(N/N=C/c4ccc(C(=O)NCCN(C)C)cc4)ncnc32)c1", "Fulfilled"),
    ("FC(F)(F)CNc1nccc(-c2cnn3ncccc23)n1", "Not fulfilled"),
    ("O=C(O[C@H]1CN[C@H](C#Cc2cc3ncnc(Nc4ccc5c(cnn5Cc5ccccc5)c4)c3s2)C1)N1CCOCC1", "Fulfilled"),
]

Query block: Can COc1cc(N2CCN(C(C)C)CC2)ccc1Nc1nc(Nc2cccc3ncccc23)c2cc[nH]c2n1 be said to have inhibition at or above 2%?
Result block: Fulfilled

Query block: Let us now turn to Cc1c2ccc(N(C)c3ccnc(Nc4cccc(S(N)(=O)=O)c4)n3)cc2nn1C
Result block: Fulfilled

Query block: Let us now turn to c1ccc(-c2n[nH]cc2-c2ccnc(-c3ccc(OCCn4ccnc4)cc3)c2)nc1
Result block: Fulfilled

Query block: Let us now turn to CS(=O)(=O)CCNCc1ccc(-c2ccc3ncnc(Nc4ccc(OCc5cccc(C(F)(F)F)c5)cc4)c3c2)o1
Result block: Fulfilled

* * *

Here, each record is paired with measured inhibition data.
Biological target: Ribosomal protein S6 kinase beta-1 (Homo sapiens);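 note: values are mean inhibition of p70S6K1, measured as part of the GSK PKIS panel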
Details: at 1 µM
Give just the numeric value; % need not be written.

Illustrative cases are given below, each with its answer.
# smiles.structure, inhibition, %
rows = [
    ("COc1ccc2ncn(-c3cc(O[C@H](C)c4ccccc4C(F)(F)F)c(C(N)=O)s3)c2c1", -0.16),
    ("O=C(O[C@H]1CN[C@H](C#Cc2cc3ncnc(Nc4ccc(OCc5cccc(F)c5)c(Cl)c4)c3s2)C1)N1CCOCC1", 2.85),
    ("COc1cccc(Nc2nccc(-c3cnn4ncccc34)n2)c1", 3.93),
    ("CCS(=O)(=O)c1ccc(OC)c(Nc2ncc(-c3cccc(F)c3)o2)c1", 5.19),
    ("CCn1c(-c2nonc2N)nc2cncc(C(=O)NCCNC)c21", 78.2),
    ("CC1(C)CC(n2cnc(-c3ccc(F)cc3)c2-c2ccnc(N)n2)CC(C)(C)N1", 0.28),
    ("CC(C)c1ccc(-c2cc(-c3c[nH]nc3-c3ccccn3)ccn2)cc1", -0.41),
]

Query block: Any idea what its inhibition is? The compound is COc1ccccc1-c1cc(/C=C2\C(=O)Nc3ncc(Br)cc32)cc(Br)c1O
Result block: 2.75

* * *

Molecular target: Cyclin-dependent kinase 2 (Homo sapiens) (UniProt P24941);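 note: mean inhibition of CDK2 bound to cyclin A, from the GSK PKIS kinase inhibitor set screen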
Conditions: at 0.1 µM
Here, each record is paired with measured inhibition data.
Give just the numeric value; % need not be written.

Illustrative cases are given below, each with its answer.
# compound, experimental.target, inhibition [%]
rows = [
    ("Cc1cc(O)cc(C)c1/C=C/c1cncc(C(N)=O)c1", "Cyclin-dependent kinase 2 (Homo sapiens) (UniProt P24941)", 1.56),
    ("CCS(=O)(=O)c1ccc(OC)c(Nc2ncc(-c3cccc(F)c3)o2)c1", "Cyclin-dependent kinase 2 (Homo sapiens) (UniProt P24941)", 3.74),
    ("NS(=O)(=O)c1ccc(N/N=C2\\C(=O)Nc3cccc(CCc4ccncc4)c32)cc1", "Cyclin-dependent kinase 2 (Homo sapiens) (UniProt P24941)", 51.4),
    ("CS(=O)(=O)Nc1ccc(-c2ccc3c(NC(=O)C4CC4)n[nH]c3c2)cc1", "Cyclin-dependent kinase 2 (Homo sapiens) (UniProt P24941)", 2.2),
    ("CC1=C(C(=O)Nc2ccc3[nH]nc(C)c3c2)C(c2ccc(C(F)(F)F)cc2)CC(=O)N1 (centres undefined)", "Cyclin-dependent kinase 2 (Homo sapiens) (UniProt P24941)", 2.54),
    ("CCOc1ccc2c(-c3ccnc(Nc4cc(OC)cc(C(F)(F)F)c4)n3)cnn2n1", "Cyclin-dependent kinase 2 (Homo sapiens) (UniProt P24941)", 2.24),
]

Query block: Identify the measured inhibition of O=C(O[C@H]1CN[C@H](C#Cc2cc3ncnc(Nc4ccc5c(cnn5Cc5ccccc5)c4)c3s2)C1)N1CCOCC1 for Cyclin-dependent kinase 2 (Homo sapiens) (UniProt P24941).
Result block: 0.92

Query block: Let us now turn to COc1cc2c(cc1Nc1nc(Nc3cccc(F)c3C(N)=O)c3cc[nH]c3n1)N(C(=O)CN1CCN(C(C)C)CC1)CC2
Result block: 3.46

Query block: Let us now turn to Fc1cccc(COc2ccc(Nc3ncncc3C#Cc3ccccc3)cc2Cl)c1
Result block: 1.7
